// values below are reported % Inhibition
Test system: Brugia malayi
Test: WHO-TDR: Lymphatic Filariasis
Assay type: functional
Set-up: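 tested at 10 µM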

{"columns": ["Structure Smiles", "% Inhibition"],
 "data": [
  ["Fc1cccc2sc(Nc3nc4c(s3)CCCC4)nc12", "50%"],
  ["CC(C)N1CCc2c(sc(NC(=O)c3cc4c(ccc5ccccc54)oc3=O)c2C(N)=O)C1", "100%"]
]}

Lab note: next compound to report on.
Looking up `CS(=O)(=O)c1ccc2nc(Nc3nc4c(F)cccc4s3)sc2c1` , I see its % Inhibition listed as 25%

* * *

Test system: Leishmania infantum
Assay: WHO-TDR: Leishmaniasis
Type: functional, organism-based, Mus musculus
Conditions: Macrophage
Measurement Kind: IC50

Take a look at these entries with their results.
{"columns": ["Compound", "Measured Value"],
 "data": [
  ["NS(=O)(=O)c1ccc2nc(NC(=O)CCSc3ccc(Cl)cc3)sc2c1", "> 12.8 µg/mL"],
  ["CC(C)c1cc(C(=O)NCC2CCCO2)nn1-c1nc2ccccc2s1 (stereo unspecified)", "> 11.1 µg/mL"],
  ["CCOC(=O)N1CCc2c(sc(NC(=O)c3ccco3)c2-c2nc3ccccc3s2)C1", "0.43 µg/mL"],
  ["O=C(Nc1onc2c1CCC2)c1cccc(F)c1", "> 7.39 µg/mL"]
]}

Looking up `COc1ccc(-c2ccc(=O)n(CCCNC(=O)Cc3ccc(F)cc3)n2)cc1` , I see its IC50 listed as > 11.9 µg/mL

Looking up `CN(Cc1ccco1)S(=O)(=O)c1ccc(C(=O)Nc2nnc(-c3cccs3)o2)cc1` , I see its IC50 listed as > 13.3 µg/mL

Looking up `Cc1nnc(NC(=O)CSc2nc(-c3ccccc3)c(N)s2)s1` , I see its IC50 listed as 0.353 µg/mL

Looking up `O=C(Nc1cccc(-c2ccc3nnc(-c4cccnc4)n3n2)c1)c1ccco1` , I see its IC50 listed as > 11.5 µg/mL

Looking up `C=CCN(CC=C)S(=O)(=O)c1ccc(C(=O)Nc2nnc(-c3ccc(C)cc3C)o2)cc1` , I see its IC50 listed as 5.72 µg/mL

Looking up `CCN(C1CCCCC1)S(=O)(=O)c1ccc(C(=O)Nc2nc(-c3ccccn3)cs2)cc1` , I see its IC50 listed as 4.57 µg/mL

Looking up CCOC(=O)c1sc(NC(=O)C2CCCN2S(C)(=O)=O)nc1-c1ccccc1 (stereo unspecified) , I see its IC50 listed as > 12.7 µg/mL
